Value source: paper PMC3206016

system-tested: T1, SCRIB-34/4 (MBP fusion of the tandem of the third and fourth PDZ domains of SCRIB) (human, UniProt Q14160-1 997-1193)
T1 construct: also called MBP-PDZ analyte SCRIB-34/4; tandem PDZ construct; source: E. coli BL21 DE3, purified (amylose column, Superdex 75 gel filtration)
T1 sequence (looked up): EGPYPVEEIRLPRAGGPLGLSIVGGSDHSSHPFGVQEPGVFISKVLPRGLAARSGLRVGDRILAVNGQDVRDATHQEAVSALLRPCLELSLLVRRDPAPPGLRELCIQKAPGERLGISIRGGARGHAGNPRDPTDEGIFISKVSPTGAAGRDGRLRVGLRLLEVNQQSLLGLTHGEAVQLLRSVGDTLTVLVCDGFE
assay-overview: SPR
study-conditions: both partners purified
Ends that are not written are not given here. * marks the point of attachment. Biotin = O=C1N[C@H]2[C@H](CS[C@H]2CCCCC(=O)*)N1
readout-kind: pKd
Convention used: pKd is expressed as -log10 of the molar concentration.

Would you please look over these solved cases?
Biotin-GSGAGKESYV (also called ABC1 short; source: synthetic peptide (JPT Peptide Technologies)) ... 5.00
Biotin-GSGAGPETLV (also called ARHGAP6 short; source: synthetic peptide (JPT Peptide Technologies)) [ARHGAP6_05 (short peptide of Rho GTPase-activating protein 6: GSGAG and the last five residues)] ... 4.51
Biotin-SGGKRKETLV (also called NET1 long; source: synthetic peptide (JPT Peptide Technologies)) [NET1_10 (long peptide of Neuroepithelial cell-transforming gene 1 protein: the last ten residues)] ... 4.20
Biotin-GSGAGKETLV (also called NET1 short; source: synthetic peptide (JPT Peptide Technologies)) ... 4.82
Biotin-NPDALPETLV (also called ARHGAP6 long; source: synthetic peptide (JPT Peptide Technologies)) [ARHGAP6_10 (long peptide of Rho GTPase-activating protein 6: the last ten residues)] ... 4.55

// below: pKd requested for another binder
Consider the binder shown here: Biotin-QDEKVKESYV (also called ABC1 long; source: synthetic peptide (JPT Peptide Technologies)) [ABC1_10 (long peptide of ATP-binding cassette sub-family A member 1: the last ten residues)] What is its recorded pKd?
5.10
